- testedSystem: UniProt:P04629
- Sequence (P04629 33-796): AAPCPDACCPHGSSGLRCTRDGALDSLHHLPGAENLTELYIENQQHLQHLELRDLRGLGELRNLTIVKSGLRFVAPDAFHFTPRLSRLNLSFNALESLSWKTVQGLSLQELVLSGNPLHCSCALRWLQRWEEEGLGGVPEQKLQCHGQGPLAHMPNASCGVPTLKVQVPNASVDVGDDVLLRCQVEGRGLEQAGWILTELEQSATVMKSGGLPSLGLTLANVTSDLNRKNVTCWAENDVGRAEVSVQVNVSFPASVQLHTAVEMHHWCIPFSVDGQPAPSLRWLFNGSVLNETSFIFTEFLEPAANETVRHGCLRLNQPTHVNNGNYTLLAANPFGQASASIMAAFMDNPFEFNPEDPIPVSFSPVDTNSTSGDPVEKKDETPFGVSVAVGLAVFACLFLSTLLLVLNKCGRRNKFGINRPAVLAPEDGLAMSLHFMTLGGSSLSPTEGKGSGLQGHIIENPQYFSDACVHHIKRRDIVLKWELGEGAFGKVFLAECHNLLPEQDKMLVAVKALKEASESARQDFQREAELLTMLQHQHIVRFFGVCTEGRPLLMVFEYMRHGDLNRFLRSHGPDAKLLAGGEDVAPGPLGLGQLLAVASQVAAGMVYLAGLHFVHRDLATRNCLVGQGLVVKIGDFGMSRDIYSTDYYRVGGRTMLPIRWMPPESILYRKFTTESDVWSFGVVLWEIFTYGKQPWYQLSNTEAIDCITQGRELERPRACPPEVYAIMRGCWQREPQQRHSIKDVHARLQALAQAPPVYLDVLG
- testProtocol: Cell based DiscoveRx PathHunter antagonist assay, TRKA cell line
- experimentalContext: read-out: TrkA cell potency
pIC50: −log10 of the molar value.
endpointLabel: pIC50

Request: Give the measured pIC50 of Cc1cc(C(F)(F)F)nn1CC(=O)Nc1cncc(C(=O)c2cn(C(C)(C)CO)c3nc(N)ncc23)c1 [Example 47] .
Response: 7.46

[I] C[C@@H](CO)n1cc(C(=O)c2cncc(NC(=O)Cn3cc(C(F)(F)F)nn3)c2)c2cncnc21 [Example 13]
[II] Cc1cc(C(F)(F)F)nn1CC(=O)Nc1cncc(C(=O)c2cn([C@H](C)CO)c3ncncc23)c1 [Example 17]
[III] CC(C)(CO)n1cc(C(=O)c2cncc(NC(=O)Cc3ccc(F)cc3F)c2)c2cnc(N)nc21 [Example 50]
[IV] CC(C)(C)n1cc(C(=O)c2cncc(NC(=O)Cn3cc(C(F)(F)F)nn3)c2)c2cncnc21 [Example 2]
Request: Kindly order the items shown according to pIC50, from the highest value down. Answer by listing the labels in the requested order.
Response: IV, III, II, I
(IV: 8.28, III: 8.00, II: 6.99, I: 5.95)

[a] C[C@H](CO)n1cc(C(=O)c2cncc(NC(=O)Cc3ccc(F)cn3)c2)c2cncnc21 [Example 19]
[b] CC(C)(CO)n1cc(C(=O)c2cncc(NC(=O)Cn3cc(C4CC4)cn3)c2)c2cncnc21 [Example 33]
Request: Higher pIC50: a or b ? Pick one; state its label.
Response: b
(b: 8.70, a: 5.74)
